- experiment.description: Ratio of drug uptake in occipital lobe to cerebellum in anesthetized cynomolgus monkey after 105 mins postinjection
- Format: ADME, organism-based, Macaca fascicularis
- measurement.conditions: in vivo, 1.75 h
# Lookup of reported Ratio keyed by entry
Keep it simple and answer with nothing but the number.

1) O=C(OCC[18F])C1C2CCC(CC1c1cccc(/C=C\Br)c1)N2 (centres undefined)    1.1
2) O=C(OCCC[18F])C1C2CCC(CC1c1cccc(/C=C\Br)c1)N2 (centres undefined)    1.1
3) O=C(OCCC[18F])C1C2CCC(CC1c1cccc(/C=C\I)c1)N2 (centres undefined)    1

Please turn your attention to the following entry.
Form: compound = O=C(OCC[18F])C1C2CCC(CC1c1cccc(/C=C\I)c1)N2 (centres undefined) ; Ratio = 1

---

- experiment.description: Ratio of drug uptake in caudate to cerebellum in anesthetized cynomolgus monkey after 65 mins postinjection
- Format: ADME, organism-based, Macaca fascicularis
- measurement.conditions: in vivo
# Lookup of reported Ratio keyed by entry
Keep it simple and answer with nothing but the number.

1) O=C(OCCC[18F])C1C2CCC(CC1c1cccc(/C=C\I)c1)N2 (centres undefined)    1

Form: compound = O=C(OCCC[18F])C1C2CCC(CC1c1cccc(/C=C\Br)c1)N2 (centres undefined) ; Ratio = 1.2

Form: compound = O=C(OCC[18F])C1C2CCC(CC1c1cccc(/C=C\Br)c1)N2 (centres undefined) ; Ratio = 1.2

Form: compound = O=C(OCC[18F])C1C2CCC(CC1c1cccc(/C=C\I)c1)N2 (centres undefined) ; Ratio = 1.1

---

- Tested on: Putamen
- experiment.description: Drug uptake in anesthetized cynomolgus monkey brain putamen after 125 mins postinjection
- Type: ADME, organism-based, Macaca fascicularis
- measurement.conditions: in vivo
endpoint.name: Drug uptake
Keep it simple and answer with nothing but the number.

Reference set (4 entries):
1. O=C(OCCC[18F])C1C2CCC(CC1c1cccc(/C=C\Br)c1)N2 (stereo not given)    4.82
2. O=C(OCCC[18F])C1C2CCC(CC1c1cccc(/C=C\I)c1)N2 (stereo not given)    4.31
3. O=C(OCC[18F])C1C2CCC(CC1c1cccc(/C=C\Br)c1)N2 (stereo not given)    4.59
4. O=C(OCC[18F])C1C2CCC(CC1c1ccc(/C=C\I)cc1)N2 (stereo not given)    4.34

Please turn your attention to the following entry.
Form: compound = O=C(OCC[18F])C1C2CCC(CC1c1cccc(/C=C\I)c1)N2 (stereo not given) ; Drug uptake = 3.58

---

# Lookup of reported Ratio keyed by entry
- experiment.description: Ratio of drug uptake in occipital lobe to cerebellum in anesthetized cynomolgus monkey after 12.5 mins postinjection
- Format: ADME, organism-based, Macaca fascicularis
- measurement.conditions: in vivo
Keep it simple and answer with nothing but the number.

Reference set (4 entries):
1. O=C(OCCC[18F])C1C2CCC(CC1c1cccc(/C=C\Br)c1)N2 (stereo not given)    0.7
2. O=C(OCC[18F])C1C2CCC(CC1c1ccc(/C=C\I)cc1)N2 (stereo not given)    0.8
3. O=C(OCC[18F])C1C2CCC(CC1c1cccc(/C=C\Br)c1)N2 (stereo not given)    0.8
4. O=C(OCC[18F])C1C2CCC(CC1c1cccc(/C=C\I)c1)N2 (stereo not given)    0.7

Please turn your attention to the following entry.
Form: compound = O=C(OCCC[18F])C1C2CCC(CC1c1cccc(/C=C\I)c1)N2 (stereo not given) ; Ratio = 0.8

Numbers sourced from ChEMBL document CHEMBL1151757.
